Origin of values: patent US20260250250A1

Listed molecules paired with reported IC50
Measured on: human E3 ubiquitin-protein ligase RNF31 (HOIP) (Homo sapiens, UniProt Q96EP0)
Sequence (Q96EP0 695-1072 limits assumed): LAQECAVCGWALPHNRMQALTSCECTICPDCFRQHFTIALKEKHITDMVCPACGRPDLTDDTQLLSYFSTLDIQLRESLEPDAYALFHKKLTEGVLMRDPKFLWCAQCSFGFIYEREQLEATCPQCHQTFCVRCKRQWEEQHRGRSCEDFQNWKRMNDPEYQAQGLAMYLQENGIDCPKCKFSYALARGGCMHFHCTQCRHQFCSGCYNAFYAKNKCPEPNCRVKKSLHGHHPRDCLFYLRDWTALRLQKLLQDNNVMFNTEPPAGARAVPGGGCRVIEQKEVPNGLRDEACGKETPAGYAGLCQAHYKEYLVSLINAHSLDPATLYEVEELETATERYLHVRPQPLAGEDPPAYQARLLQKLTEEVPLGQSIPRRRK
Protocol: Cell-free HTRF-based HOIP inhibition assay
Format: biochemical

INSERT INTO measurements (molecule, reading) VALUES
  ('COc1ccc(S(=N)(=O)/C=C/CNC(=O)c2cc3c([nH]c2=O)CCN(Cc2ccccc2)C3)cc1F (stereo not shown)', '≤ 1000 nM'),
  ('O=C(NC/C=C/S(=O)(=O)c1ccccc1)c1cc2c([nH]c1=O)CCN(C(=O)OC1CC1)C2', '≤ 1000 nM');

State its IC50 for this molecule: O=C(NC/C=C/S(=O)(=O)c1ccc(Cl)cc1)c1cc(-c2ccccc2)c[nH]c1=O
≤ 10000 nM

// Input: CC(C)S(=O)(=O)/C=C/CNC(=O)c1cc2c([nH]c1=O)CCCC2 . Output its IC50 only.
≤ 10000 nM

Give me measured IC50, please, for this molecule: COCCC(=O)N1CCc2[nH]c(=O)c(C(=O)NC/C=C/S(=O)(=O)c3ccccc3)cc2C1
≤ 1000 nM

For the molecule O=C(NC/C=C/S(=O)(=O)c1ccc(Cl)cc1)c1cc2c([nH]c1=O)CCN(Cc1ccccc1)C2 , report IC50.
≤ 100 nM

Please give the documented IC50 of N#Cc1ccc(S(=N)(=O)/C=C/CNC(=O)c2cc3c([nH]c2=O)CCCC3)cc1 (stereo not shown)
≤ 100 nM

State its IC50 for this molecule: COc1ccc(S(=N)(=O)/C=C/CNC(=O)c2cc3c([nH]c2=O)CCC(F)C3)cc1F (stereo not shown)
≤ 1000 nM

* * *

Listed here are molecules together with their documented IC50.
Measured on: human E3 ubiquitin-protein ligase RNF31 (HOIP) (Homo sapiens)
Protocol: Cell-free HTRF-based HOIP inhibition assay
Type: biochemical

INSERT INTO assay_data (molecule, measured_on, reading) VALUES
  ('COc1ccc(S(=N)(=O)/C=C/CNC(=O)c2cc3c([nH]c2=O)CCN(C(=O)OCC2CC2)C3)cc1F (stereo not shown)', 'human E3 ubiquitin-protein ligase RNF31 (HOIP) (Homo sapiens)', '≤ 100 nM'),
  ('O=C(NC/C=C/S(=O)(=O)c1ccccc1)c1cc2c([nH]c1=O)CCCCC2', 'human E3 ubiquitin-protein ligase RNF31 (HOIP) (Homo sapiens)', '≤ 1000 nM'),
  ('CC(=O)Nc1ccc(S(=N)(=O)/C=C/CNC(=O)c2cc3c([nH]c2=O)CCCC3)cc1 (stereo not shown)', 'human E3 ubiquitin-protein ligase RNF31 (HOIP) (Homo sapiens)', '≤ 1000 nM'),
  ('N=S(=O)(/C=C/CNC(=O)c1cc2c([nH]c1=O)CCCC2)c1ccc2c(c1)CCO2 (stereo not shown)', 'human E3 ubiquitin-protein ligase RNF31 (HOIP) (Homo sapiens)', '≤ 1000 nM'),
  ('Cc1ccc(S(=O)(=O)/C=C/CNC(=O)c2cc3c([nH]c2=O)CCCC3)cc1C', 'human E3 ubiquitin-protein ligase RNF31 (HOIP) (Homo sapiens)', '≤ 1000 nM'),
  ('CC(C)(C)CC(=O)N1CCc2[nH]c(=O)c(C(=O)NC/C=C/S(=O)(=O)c3ccccc3)cc2C1', 'human E3 ubiquitin-protein ligase RNF31 (HOIP) (Homo sapiens)', '≤ 1000 nM'),
  ('N=S(=O)(/C=C/CNC(=O)c1cc2c([nH]c1=O)CCCC2)c1ccc(C(F)(F)F)cc1 (stereo not shown)', 'human E3 ubiquitin-protein ligase RNF31 (HOIP) (Homo sapiens)', '≤ 100 nM'),
  ('COc1ccc(CN2CCc3[nH]c(=O)c(C(=O)NC/C=C/S(=N)(=O)c4ccc(OC)c(F)c4)cc3C2)cc1 (stereo not shown)', 'human E3 ubiquitin-protein ligase RNF31 (HOIP) (Homo sapiens)', '≤ 1000 nM'),
  ('COc1ccc(S(=N)(=O)/C=C/CNC(=O)c2cc3c([nH]c2=O)CCN(CC2CC2)C3)cc1F (stereo not shown)', 'human E3 ubiquitin-protein ligase RNF31 (HOIP) (Homo sapiens)', '≤ 10000 nM'),
  ('O=C(NC/C=C/S(=O)(=O)c1ccccc1Cl)c1cc(-c2ccccc2)c[nH]c1=O', 'human E3 ubiquitin-protein ligase RNF31 (HOIP) (Homo sapiens)', '≤ 1000 nM');

Indicate its recorded IC50; the molecule in question is CC(C)(C)c1ccc(S(=O)(=O)/C=C/CNC(=O)c2cc3c([nH]c2=O)CCCC3)cc1
≤ 10000 nM

Name the recorded IC50 of the molecule listed here: O=C(NC/C=C/S(=O)(=O)c1ccccc1)c1cc2c([nH]c1=O)CCN(C(=O)OCCN1CCCCC1=O)C2
≤ 1000 nM

Please report the measured IC50 for CNc1ccc(S(=N)(=O)/C=C/CNC(=O)c2cc3c([nH]c2=O)CCCC3)cc1 (stereo not shown)
≤ 1000 nM

Return IC50 (reported value) for this molecule: O=C(NC/C=C/S(=O)(=O)c1ccccc1)c1cc2c([nH]c1=O)CCCC2
≤ 1000 nM

// fetch IC50 given entry CC12CC(C(=O)N3CCc4[nH]c(=O)c(C(=O)NC/C=C/S(=O)(=O)c5ccccc5)cc4C3)(C1)C2
≤ 1000 nM

For the molecule O=C(NC/C=C/S(=O)(=O)c1ccccc1)c1cc2c([nH]c1=O)CCN(C(=O)OCC(F)F)C2 , give its reported IC50.
≤ 100 nM
